- STUDY_SYSTEM: human melanocortin 3 receptor (MC3R) (human, UniProt P41968 1-323)
- Sequence (P41968 whole entry): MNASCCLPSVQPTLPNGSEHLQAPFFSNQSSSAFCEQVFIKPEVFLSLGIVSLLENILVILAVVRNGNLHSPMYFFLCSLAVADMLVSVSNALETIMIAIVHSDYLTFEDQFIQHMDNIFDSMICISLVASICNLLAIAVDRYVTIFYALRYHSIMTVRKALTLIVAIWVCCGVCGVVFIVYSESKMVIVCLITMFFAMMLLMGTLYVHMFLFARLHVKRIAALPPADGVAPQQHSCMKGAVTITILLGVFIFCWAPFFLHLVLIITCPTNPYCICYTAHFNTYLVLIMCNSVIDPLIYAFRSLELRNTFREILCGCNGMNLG
- TEST: cell-based or functional assay
Positions of bridges follow the written chain, without caps; N, C: chain ends. Non-standard residues stand in square brackets, D forms with d. d2Nal = N[C@H](Cc1ccc2ccccc2c1)C(=O)O; Hyp = O=C(O)[C@@H]1C[C@@H](O)CN1; Nle = CCCC[C@H](N)C(=O)O
Recorded Max Activation % for the following binders
// return numeric value only (unit: %, not printed)

Some solved entries appear below for comparison.
BINDER: Ac-[Nle]D[Hyp][d2Nal]RWK[dV][dP]-NH2 (lactam 2-7; SMILES CCCC[C@H](NC(C)=O)C(=O)N[C@H]1CC(=O)NCCCC[C@@H](C(=O)N[C@@H](C(=O)N2CCC[C@@H]2C(N)=O)C(C)C)NC(=O)[C@H](Cc2c[nH]c3ccccc23)NC(=O)[C@H](CCCNC(=N)N)NC(=O)[C@@H](Cc2ccc3ccccc3c2)NC(=O)[C@@H]2C[C@@H](O)CN2C1=O) [D3]
Max Activation %, %: 111
--
BINDER: IDPFFRWKVP [B8]
Max Activation %, %: 4.86

Qu. Can you share its Max Activation %? I mean this binder: Ac-[Nle]DP[d2Nal]RWK[dP][dV]-NH2 (lactam 2-7; SMILES CCCC[C@H](NC(C)=O)C(=O)N[C@H]1CC(=O)NCCCC[C@@H](C(=O)N2CCC[C@@H]2C(=O)N[C@@H](C(N)=O)C(C)C)NC(=O)[C@H](Cc2c[nH]c3ccccc23)NC(=O)[C@H](CCCNC(=N)N)NC(=O)[C@@H](Cc2ccc3ccccc3c2)NC(=O)[C@@H]2CCCN2C1=O) [TCMCB02]
Ans. 101
